- Target desc: Bromodomain-containing protein 4 (Homo sapiens, UniProt O60885)
- Protocol text: Inhibition of BRD4 bromodomain 1 (unknown origin) incubated in dark for 30 mins by TR-FRET assay
Would you mind telling me the reported IC50 of each entry?
Could you give me the number in nM? Just the number is fine.

**Query** Query IC50 for `COc1ccc(-c2cn(C)c(=O)c3cc(C(=O)N4CCCCC4)sc23)cc1OC`
**Result** 15800

**Query** Query IC50 for `COc1ccc(-c2cn(C)c(=O)c3cc(C(=O)N(C)C)sc23)cc1OC`
**Result** 12600

**Query** Query IC50 for `Cn1cc(-c2cccc(C#N)c2)c2sc(C(=N)NC3CCS(=O)(=O)CC3)cc2c1=O`
**Result** 2510

**Query** Query IC50 for `Cn1cc(-c2cccc(C(F)(F)F)c2)c2sc(C(=N)NC3CCS(=O)(=O)CC3)cc2c1=O`
**Result** 2510

**Query** Query IC50 for `CN(C)c1cccc(-c2cn(C)c(=O)c3cc(C(=N)NC4CCS(=O)(=O)CC4)sc23)c1`
**Result** 501

**Query** Query IC50 for `COc1ccc(-c2cn(C)c(=O)c3cc(C(=O)NC4CCS(=O)(=O)CC4)sc23)cc1OC`
**Result** 50.1

**Query** Query IC50 for `CNC(=N)c1cc2c(=O)n(C)cc(-c3ccc(OC)c(OC)c3)c2s1`
**Result** 1260

**Query** Query IC50 for `Cn1cc(-c2ccccc2)c2sc(C(=N)NC3CCS(=O)(=O)CC3)cc2c1=O`
**Result** 1580

**Query** Query IC50 for `CNC(=O)c1cc2c(=O)n(C)cc(-c3ccc(OC)c(OC)c3)c2s1`
**Result** 200
